- System: RAW 264.7 cells
- protocol-description: SRB cytotoxicity / survival of RAW 264.7 cells in the nitrite assay
- Format: cell-based, mouse
- condition-summary: % survival at a concentration of 50 μM, RAW 264.7
Mark rule met for reported Nitrite assay % surv. of 80% or greater; mark rule not met for anything smaller.

The examples below pair each entry with its known result.
Lookup: Has CC(=O)OC1C[C@H](OC(C)=O)CC2=CCC3C4CCC([C@@](C)(O)[C@@H](C[C@@H]5COC(=O)[C@@]5(C)O)OC(C)=O)[C@@]4(C)CCC3[C@]21C (stereo partly shown) a recorded Nitrite assay % surv. greater than or equal to 80%?
Found: rule met

Lookup: Has CC1=C(C)C(=O)OC(C(C)(O)C2(O)CC(O)C3(O)C4CC(O)C5(O)CC=CC(=O)C5(C)C4CCC32C)C1 (stereo not shown) a recorded Nitrite assay % surv. greater than or equal to 80%?
Found: rule met

Lookup: Has CC(=O)O[C@H]1C=CC(=O)[C@]2(C)C3CC[C@]4(C)[C@](O)([C@@](C)(O)C5CC(C)=C(C)C(=O)O5)CC[C@@]4(O)C3C[C@H]3O[C@]132 (stereo partly shown) a recorded Nitrite assay % surv. greater than or equal to 80%?
Found: rule not met

Lookup: Has CC1=C(C)C(=O)OC([C@](C)(O)[C@]2(O)CC[C@@]3(O)C4C[C@H]5O[C@]56[C@@H](O)C=CC(=O)[C@]6(C)C4CC[C@]23C)C1 (stereo partly drawn) [Compound 3, 4β-hydroxywithanolide E] a recorded Nitrite assay % surv. greater than or equal to 80%?
Found: rule not met

Further cases:
Lookup: Has CC1=C(CO)CC(C(C)(O)C2(O)CCC3(O)C4CC(O)C5(O)CC=CC(=O)C5(C)C4CCC32C)OC1=O (stereo not shown) [Compound 7, phyperunolide B] a recorded Nitrite assay % surv. greater than or equal to 80%?
Found: rule met

Lookup: Has CC(=O)O[C@@H]1CC2C(CC[C@]3(C)[C@](O)([C@@](C)(O)C4CC(C)=C(C)C(=O)O4)CC[C@@]23O)[C@@]2(C)C(=O)C=CC=C12 (stereo partly shown) [Compound 5a, withaperuvin C acetate] a recorded Nitrite assay % surv. greater than or equal to 80%?
Found: rule met

Lookup: Has CC1=C(C)C(=O)OC(C(C)(O)C2(O)CCC3(O)C4CC(O)C5(O)C(O)C(O)CC(=O)C5(C)C4CCC32C)C1 (stereo not shown) a recorded Nitrite assay % surv. greater than or equal to 80%?
Found: rule met

Lookup: Has CC(=O)OC1C[C@H](O)CC2=CCC3C4CCC([C@@](C)(O)[C@H](O)C[C@@H]5COC(=O)[C@@]5(C)O)[C@@]4(C)CCC3[C@]21C (stereo partly shown) a recorded Nitrite assay % surv. greater than or equal to 80%?
Found: rule met

Lookup: Has CC(=O)OC1C=CC(=O)C2(C)C3CCC4(C)C(O)(CCC4(O)C(C)(O)C4CC(C)=C(C)C(=O)O4)C3CC(Cl)C12O (stereo not shown) a recorded Nitrite assay % surv. greater than or equal to 80%?
Found: rule met
